test system: UACC-62 melanoma; assay: NCI-60 one-dose screen, 48 h (100 = growth as untreated, 0 = no growth, -100 = all killed); settings: 10 µM unless noted
Compounds without any hit were thinned out: in the full panel of roughly 83,000, 20% have a hit.
MEASURED_ENDPOINT: growth (%)
Please give a number only; it is taken to be in %.

As a guide, the following entries are already answered.
C#C[C@]1(O)CC[C@H]2[C@@H]3CC=C4c5sc(-c6ccc([N+](=O)[O-])cc6)nc5CC[C@]4(C)[C@H]3CC[C@@]21C	10.6
Cc1cc(N=C2NC(=O)CS2)n[nH]1	93.5
COc1ccc(NC(=O)[C@@H](N)Cc2ccccc2)cc1C(=O)Nc1cccc(C2CC(=O)c3c(cc(OC)c(OC)c3OC)O2)c1 (stereo not given in full)	49.7
CN(C)c1nc(NCCNS(=O)(=O)c2ccc(C(=O)/C=C/c3ccc(C(F)(F)F)cc3)cc2)nc(Nc2ccc(F)cc2)n1	-5.71

Below: the item to evaluate.
For the compound COc1ccc2c(c1)c(-c1cc3nc(-c4cn(C)c5ncc(Br)cc45)cc(N)n3n1)cn2C , give its reported growth.
-82.2
